Each item that follows carries a reported MIC.
tested on: N. gonorrhoeae WHO K; assay: Liquid broth MIC in Fastidious broth; conditions: Neisseria gonorrhoeae, read-out: Minimum Inhibitory Concentration (MIC), N. gonorrhoeae WHO K

Below, 8 molecules whose answers are already recorded.
Quick note, MIC for O=C(CN1CCN(C(=O)N[C@@H](C(=O)N[C@H]2Cc3ccc(F)c(C(=O)O)c3OB2O)c2cc(F)c(O)c(O)c2Cl)C(=O)C1=O)NCc1nccs1 landed at 16 to 32 µg/mL

Quick note, MIC for CCN1CCN(C(=O)N[C@@H](C(=O)N[C@H]2Cc3cccc(C(=O)O)c3OB2O)c2ccc(P(=O)(O)O)c(F)c2)C(=O)C1=O (single isomer, unassigned) landed at < 1 µg/mL

Quick note, MIC for CC(=O)N1CCC[C@@H]1C(=O)N[C@H](C(=O)N[C@H]1Cc2cccc(C(=O)O)c2OB1O)c1ccc(P(=O)(O)O)cc1 landed at 16 to 32 µg/mL

Quick note, MIC for CN(CCN1CCN(C(=O)NC(C(=O)N[C@H]2Cc3ccc(F)c(C(=O)O)c3OB2O)c2cc(F)c(O)c(O)c2Cl)C(=O)C1=O)S(=O)(=O)c1ccc(C(N)=O)cc1 (stereo partly drawn) landed at > 64 µg/mL

Quick note, MIC for O=C(CN1CCN(C(=O)NC(C(=O)N[C@H]2Cc3ccc(F)c(C(=O)O)c3OB2O)c2cc(F)c(O)c(O)c2Cl)C(=O)C1=O)Nc1ccc(O)cc1 (stereo partly drawn) landed at 16 to 32 µg/mL

Quick note, MIC for O=C(NCCN1CCN(C(=O)N[C@@H](C(=O)N[C@H]2Cc3ccc(F)c(C(=O)O)c3OB2O)c2cc(F)c(O)c(O)c2Cl)C(=O)C1=O)Nc1cccnc1 landed at > 64 µg/mL

Quick note, MIC for O=C(O)c1cccc2c1OB(O)[C@@H](NC(=O)[C@H](NC(=O)N1CCCCC1=O)c1ccc(P(=O)(O)O)cc1)C2 landed at 4 to 8 µg/mL

Quick note, MIC for CS(=O)(=O)N1CCN(C(=O)NC(C(=O)N[C@H]2Cc3cccc(C(=O)O)c3OB2O)c2ccc(P(=O)(O)O)c(Cl)c2)C1=O (stereo partly drawn) landed at < 1 µg/mL

Others:
Quick note, MIC for O=C(NCCN1CCN(C(=O)NC(C(=O)N[C@H]2Cc3ccc(F)c(C(=O)O)c3OB2O)c2cc(F)c(O)c(O)c2Cl)C(=O)C1=O)Nc1cccc(O)c1 (stereo partly drawn) landed at > 64 µg/mL

Quick note, MIC for O=C(NCCN1CCN(C(=O)NC(C(=O)N[C@H]2Cc3ccc(F)c(C(=O)O)c3OB2O)c2cc(F)c(O)c(O)c2Cl)C(=O)C1=O)c1cccc(O)c1 (stereo partly drawn) landed at > 64 µg/mL

Quick note, MIC for CCC(=O)NC(C(=O)N[C@H]1Cc2cccc(C(=O)O)c2OB1O)c1ccc(P(=O)(O)O)cc1 (stereo partly drawn) landed at 16 to 32 µg/mL

Quick note, MIC for O=C(O)c1cccc2c1OB(O)[C@@H](NC(=O)C(NC(=O)c1ccc[nH]c1=O)c1ccc(P(=O)(O)O)cc1)C2 (stereo partly drawn) landed at 16 to 32 µg/mL

* * *

molecular target: PBP3 from Escherichia coli (K-12) (Escherichia coli); assay: Bocillin-FL fluorescence polarization competition binding, E. coli PBP3
Sequence (P0AD68 1-577): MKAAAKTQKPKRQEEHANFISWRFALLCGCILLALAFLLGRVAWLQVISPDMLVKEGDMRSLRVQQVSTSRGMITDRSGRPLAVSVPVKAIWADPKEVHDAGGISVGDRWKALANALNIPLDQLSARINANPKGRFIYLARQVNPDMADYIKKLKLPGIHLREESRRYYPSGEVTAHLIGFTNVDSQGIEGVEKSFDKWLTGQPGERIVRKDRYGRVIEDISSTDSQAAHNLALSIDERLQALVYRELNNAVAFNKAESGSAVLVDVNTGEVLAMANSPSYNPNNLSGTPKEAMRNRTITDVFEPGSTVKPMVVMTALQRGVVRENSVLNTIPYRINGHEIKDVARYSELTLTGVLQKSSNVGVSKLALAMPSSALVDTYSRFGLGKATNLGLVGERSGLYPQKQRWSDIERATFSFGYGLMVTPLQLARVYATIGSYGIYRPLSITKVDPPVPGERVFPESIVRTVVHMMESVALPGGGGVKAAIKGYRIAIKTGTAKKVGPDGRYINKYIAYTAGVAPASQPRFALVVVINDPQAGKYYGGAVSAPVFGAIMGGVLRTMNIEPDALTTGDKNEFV
pEC50: −log10 of the molar value.
QUANTITY_KIND: pEC50

Quick note, pEC50 for O=C(CN1CCN(C(=O)NC(C(=O)N[C@H]2Cc3ccc(F)c(C(=O)O)c3OB2O)c2cc(F)c(O)c(O)c2Cl)C(=O)C1=O)Nc1cccnc1 (stereo partly shown) [Example 234] landed at > 5.00

Others:
Quick note, pEC50 for Cc1cc(C(=O)NCCCN2CCN(C(=O)NC(C(=O)N[C@H]3Cc4ccc(F)c(C(=O)O)c4OB3O)c3cc(F)c(O)c(O)c3Cl)C(=O)C2=O)c(F)cn1 (stereo partly shown) [Example 301] landed at > 5.00

Quick note, pEC50 for CS(=O)(=O)N1CCN(C(=O)N[C@@H](C(=O)N[C@H]2Cc3ccc(F)c(C(=O)O)c3OB2O)c2ccc(P(=O)(O)O)c(F)c2F)C1=O [Example 16] landed at > 5.00
